Test system: RXRa homodimer (NR concentration 180 nM)
assay-info: PBM binding z-score (relative to random genomic background probes); higher = stronger binding; sequences stand for … in GC…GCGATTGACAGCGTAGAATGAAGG
# if value of PBM binding z-score reaches 1, tag Condition met; if it stays below, tag Condition not met

stdin: Quick check: does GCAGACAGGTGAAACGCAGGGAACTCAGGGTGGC have PBM binding z-score greater than or equal to 1?
stdout: Condition not met

stdin: State whether the measured PBM binding z-score reaches 1, counting equality as reaching it, for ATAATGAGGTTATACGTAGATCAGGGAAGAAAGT
stdout: Condition met

stdin: Quick check, PBM binding z-score >= 1? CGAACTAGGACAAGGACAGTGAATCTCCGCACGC
stdout: Condition not met

stdin: Hi team, for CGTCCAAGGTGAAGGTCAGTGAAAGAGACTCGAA , is the recorded PBM binding z-score at or above 1?
stdout: Condition met

stdin: Please indicate if the recorded PBM binding z-score for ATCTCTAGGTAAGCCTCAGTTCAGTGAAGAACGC meets or exceeds 1.
stdout: Condition not met

stdin: Hi, just wondering whether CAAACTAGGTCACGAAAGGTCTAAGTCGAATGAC shows PBM binding z-score of 1 or higher.
stdout: Condition met

stdin: Does the reported PBM binding z-score for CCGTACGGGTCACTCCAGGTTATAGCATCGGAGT fall at or above the 1 mark?
stdout: Condition met

stdin: Is the recorded value of PBM binding z-score equal to or greater than 1 for this sequence? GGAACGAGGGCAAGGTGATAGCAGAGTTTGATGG
stdout: Condition not met

stdin: Is it the case that TCATATAGGTAAAGGTGTAAGTCGAACGATATGA has PBM binding z-score reaching or exceeding 1?
stdout: Condition not met

stdin: Item ATCTCTAGGTAACAATTTCAGTGAAAGAGAGGAC with PBM binding z-score of 1 or above?
stdout: Condition not met

stdin: Given the entry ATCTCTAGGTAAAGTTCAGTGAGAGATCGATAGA , answer whether its PBM binding z-score meets or surpasses 1.
stdout: Condition met

stdin: I'd appreciate it if you could say whether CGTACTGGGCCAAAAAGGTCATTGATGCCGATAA has PBM binding z-score at least equal to 1.
stdout: Condition met

stdin: Identify whether the reported PBM binding z-score of the following sequence is 1 or greater: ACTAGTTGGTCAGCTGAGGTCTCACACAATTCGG
stdout: Condition not met

stdin: Assess whether reported PBM binding z-score for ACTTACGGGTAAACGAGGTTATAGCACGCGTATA sits at 1 or higher.
stdout: Condition met

stdin: Given the entry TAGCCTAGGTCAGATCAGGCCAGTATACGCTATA , answer whether its PBM binding z-score meets or surpasses 1.
stdout: Condition met

stdin: State whether the measured PBM binding z-score reaches 1, counting equality as reaching it, for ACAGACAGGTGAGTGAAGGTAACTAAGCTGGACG
stdout: Condition not met

stdin: Confirm if PBM binding z-score reported for the sequence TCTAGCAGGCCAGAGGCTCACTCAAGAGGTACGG is 1 or above.
stdout: Condition not met

stdin: Could you please find out whether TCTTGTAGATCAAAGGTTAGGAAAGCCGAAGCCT has PBM binding z-score that meets 1 or exceeds it?
stdout: Condition met

stdin: Reported PBM binding z-score at or above 1? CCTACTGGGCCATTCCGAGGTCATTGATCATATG
stdout: Condition met

stdin: Check the entry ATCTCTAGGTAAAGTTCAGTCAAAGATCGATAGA : does PBM binding z-score equal or exceed 1?
stdout: Condition met

stdin: Decide: PBM binding z-score of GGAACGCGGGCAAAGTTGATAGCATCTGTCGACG >= 1?
stdout: Condition not met

stdin: Has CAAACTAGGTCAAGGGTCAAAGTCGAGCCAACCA a recorded PBM binding z-score greater than or equal to 1?
stdout: Condition met

stdin: Is reported PBM binding z-score greater than or equal to 1 here: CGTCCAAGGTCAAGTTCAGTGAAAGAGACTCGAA
stdout: Condition met

stdin: Please indicate if the recorded PBM binding z-score for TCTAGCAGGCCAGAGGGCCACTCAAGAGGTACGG meets or exceeds 1.
stdout: Condition not met

stdin: Does PBM binding z-score meet or surpass 1 for TCATATAGGTAAAAGGTGAACGTCGGTGTGGTAA ?
stdout: Condition met
